# Lookup of reported relative viability keyed by entry
# System: EMC-BAC-2
# procedure details: relative viability (nuclei count vs DMSO), 5 days (fraction); higher = more cells survive
# measurement context: first compound 0.253 µM

These solved cases illustrate the format of a correct answer.
molecule="COc1nc(C)cnc1NS(=O)(=O)c1cccnc1-c1ccc(-c2nnco2)cc1 [Zibotentan] + C[C@@H](Oc1cc(-c2cnn(C3CCNCC3)c2)cnc1N)c1c(Cl)ccc(F)c1Cl [Crizotinib] (partner 1 µM)" result=0.751
molecule="COc1nc(C)cnc1NS(=O)(=O)c1cccnc1-c1ccc(-c2nnco2)cc1 [Zibotentan] + CS(=O)(=O)CCNCc1ccc(-c2ccc3ncnc(Nc4ccc(OCc5cccc(F)c5)c(Cl)c4)c3c2)o1 [Lapatinib] (partner 2 µM)" result=0.805

In the following, a different molecule is considered.
Data request: Dear colleague, I am looking for the recorded relative viability of the following molecule: O=c1cc(-c2cccc3c2Sc2ccccc2S3)oc(N2CCOCC2)c1 + C[C@]1(O)C[C@@H](c2nc(-c3ccc4ccc(-c5ccccc5)nc4c3)c3c(N)nccn32)C1 [Linsitinib] (partner 1 µM)
Data returned: 0.9

----------
# Tested on: NCI-H1395
# procedure details: relative viability (nuclei count vs DMSO), 5 days (fraction); higher = more cells survive
# measurement context: first compound 0.3162 µM
observed property: relative viability
Provide a numeric answer; units are not to be included.

compound="CCN(CC)CCCCNc1ncc2cc(-c3cc(OC)cc(OC)c3)c(NC(=O)NC(C)(C)C)nc2n1 + CS(=O)(=O)N1CCN(Cc2cc3nc(-c4cccc5[nH]ncc45)nc(N4CCOCC4)c3s2)CC1 [Pictilisib] (partner 1 µM)" observed_property="relative viability" recorded_number=0.479

Below: the item to evaluate.
Data request: Consider the compound shown here: CCN(CC)CCCCNc1ncc2cc(-c3cc(OC)cc(OC)c3)c(NC(=O)NC(C)(C)C)nc2n1 + CC1(C)CCC(c2ccc(Cl)cc2)=C(CN2CCN(c3ccc(C(=O)NS(=O)(=O)c4ccc(N[C@H](CCN5CCOCC5)CSc5ccccc5)c(S(=O)(=O)C(F)(F)F)c4)cc3)CC2)C1 [Navitoclax] (partner 0.5 µM) What is its recorded relative viability?
Data returned: 1.17

----------
# Test system: NCI-H23
# procedure details: relative viability (nuclei count vs DMSO), 5 days (fraction); higher = more cells survive
# measurement context: first compound 0.03162 µM
Mark each entry true if its relative viability sits below 0.4, and false for all others.

Please review the entries below; each comes with its answer.
compound="CCN(CC)CCCCNc1ncc2cc(-c3cc(OC)cc(OC)c3)c(NC(=O)NC(C)(C)C)nc2n1 + Cc1nc(NC(=O)N2CCC[C@H]2C(N)=O)sc1-c1ccnc(C(C)(C)C(F)(F)F)c1 [Alpelisib] (partner 2 µM)" classification=false
compound="O=c1cc(N2CCOCC2)oc2c(-c3cccc4c3sc3ccccc34)cccc12 + NC(=O)Nc1cc(-c2cccc(F)c2)sc1C(=O)N[C@H]1CCCNC1 [AZD7762] (partner 0.2 µM)" classification=true
compound="CCN(CC)CCCCNc1ncc2cc(-c3cc(OC)cc(OC)c3)c(NC(=O)NC(C)(C)C)nc2n1 + CCNC(=O)c1noc(-c2cc(C(C)C)c(O)cc2O)c1-c1ccc(CN2CCOCC2)cc1 [Luminespib] (partner 0.01 µM)" classification=true

Data request: I'd appreciate it if you could check whether O=c1cc(N2CCOCC2)oc2c(-c3cccc4c3sc3ccccc34)cccc12 + Nc1ncn([C@H]2C[C@H](O)[C@@H](CO)O2)c(=O)n1 [Decitabine] (partner 2 µM) has relative viability smaller than 0.4.
Data returned: true

Data request: Check if relative viability falls below 0.4 for CCN(CC)CCCCNc1ncc2cc(-c3cc(OC)cc(OC)c3)c(NC(=O)NC(C)(C)C)nc2n1 + CC(C)C[C@H](NC(=O)[C@H](Cc1ccccc1)NC(=O)c1cnccn1)B(O)O [Bortezomib] (partner 0.002 µM) .
Data returned: false

Data request: Check if relative viability falls below 0.4 for O=c1cc(N2CCOCC2)oc2c(-c3cccc4c3sc3ccccc34)cccc12 + Nc1nc2[nH]cc(CCc3ccc(C(=O)N[C@@H](CCC(=O)O)C(=O)O)cc3)c2c(=O)[nH]1 [Pemetrexed] (partner 0.2 µM) .
Data returned: false

Data request: Identify whether the compound O=c1cc(N2CCOCC2)oc2c(-c3cccc4c3sc3ccccc34)cccc12 + CC(=O)c1c(C)c2cnc(Nc3ccc(N4CCNCC4)cn3)nc2n(C2CCCC2)c1=O [Palbociclib] (partner 0.5 µM) records relative viability below 0.4.
Data returned: false

Data request: Is it true that relative viability reported for O=c1cc(N2CCOCC2)oc2c(-c3cccc4c3sc3ccccc34)cccc12 + COc1cccc2cc(-c3nc([C@H]4CC[C@H](C(=O)O)CC4)n4ncnc(N)c34)[nH]c12 [OSI-027] (partner 0.5 µM) is less than 0.4?
Data returned: false
